Provenance of the data: PubChem BioAssay AID1508600

Experiment: Components of the Cytosolic LPS Sensing Pathway: Gene Identification via Genome-wide siRNA Screen
Conditions: RAW264.7 macrophages, IL-1a HTRF, actives lie on both sides, screened at 100 nM (by protocol), cells primed 5 h with Pam3CSK4 first
In all, about 53,000 sequences went through this assay and about 3,700 (7%) were called active. This excerpt belongs to a sample that is enriched for actives.
// not satisfied strictly below 0.4 in z-score; satisfied otherwise

{"biopolymer.sequence": "GGUAUUCCUGUCUCAGGUCTT against Matn1", "class.label": "not satisfied"}

Please indicate if the recorded z-score for CGACUGAUAGAUGAGUAAATT against C130026L21Rik meets or exceeds 0.4. satisfied

Please tell me: is the sequence GGGAUAUCUAAUCAAAACCTT against St8sia5 at or over 0.4 in terms of z-score? not satisfied

Is z-score for GCGUAUAAGCUCAGUAGACTT against Phlpp1 at or above 0.4? satisfied

Could you please find out whether GGACAAUUCCAUGCUUCCCTT against Il24 has z-score that meets 0.4 or exceeds it? not satisfied

Form field: z-score at least 0.4? Entry: CGAUACCCAACUGUUGAAATT against Ap5m1 satisfied

Exam item: decide whether the reported z-score for GGCAGGUUUUUGAACUGGUTT against Olfr725 is at least 0.4. satisfied

Is the recorded value of z-score equal to or greater than 0.4 for this sequence? GGCAAAUUCUGGAUCUGCUTT against Marf1 not satisfied

In plain terms: is recorded z-score at least 0.4 for GGACCUUUAGCUGGUUUAGTT against Sowaha ? satisfied

Does CCGCUUGCUCAUUGUAUCATT against Ruvbl2 have a reported z-score of at least 0.4? not satisfied

Reported z-score reaches at least 0.4 for GGUUUUCCUAAAGUCAACATT against Bfar ? not satisfied

Kindly determine if z-score recorded for CCAAAUGUAACUGGUGUAATT against Aif1l is above or exactly 0.4. not satisfied
